Assay Protocol: protein stability index of a GFP-peptide fusion (yeast GPS) (PSI 1-4); higher = more stable; sorted into four equal gates, so the index is relative within each strain
Conditions: ubr1∆
Measured Endpoint: protein stability index

SEFLNVPFESLQGVTYP [YIL149C/MLP2]	2.96

Shifting focus to the sequence that follows.
Looking up EWNGKSFQKKSNDKVVE [ISW2] , I see its protein stability index listed as 3.08

---

Assay Protocol: protein stability index of a GFP-peptide fusion (yeast GPS) (PSI 1-4); higher = more stable; sorted into four equal gates, so the index is relative within each strain
Conditions: ubr1∆
Overview of recorded protein stability index for various sequences

LVALSNEPAARLGSEAD [FAS2]	3.32
VLQPLLPRELPKLLDAL [SNU114]	2.6
SSRTKFWSFLDSLIFKD [YJL039C/NUP192]	2.72
DHVDGSSEFVSQDTKVI [RRP46]	2.8
MIVPVRCFSCGKVVGDK [RPB10]	2.66

Now let's try a different one.
The recorded protein stability index for entry YIKSATLYSVKSKEDMK [SNU114] equals 3.11

---

protein stability index overview
Assay Protocol: protein stability index of a GFP-peptide fusion (yeast GPS) (PSI 1-4); higher = more stable; sorted into four equal gates, so the index is relative within each strain
Conditions: ubr1∆
Lab note: jot down the number only; don't add units.

LAQLTSKLIPEVINKEI [RPS1A]	2.71

The sequence SFNIPRLTFKPWVVYLQ [YMR129W/POM152] showed protein stability index equal to 1.04

get_value(item= VKADVEKSLLPKIETNV [ISW2] , readout=protein stability index) returns 2.92

// recorded protein stability index for HGIKDIPIGHVHVIHFQ [AAR2] : 2.75

Record summary for MGKKTFREWQYFKLSIT [POP8] : reported protein stability index = 1.71

Per the records, this sequence ( HASFLCSFITQDKMFVS [FAS1] ) has protein stability index equal to 1.35

---

The entries below come with measured protein stability index values attached.
Assay Protocol: protein stability index of a GFP-peptide fusion (yeast GPS) (PSI 1-4); higher = more stable; sorted into four equal gates, so the index is relative within each strain
Conditions: pdr5∆
Write the value as a bare number.

Consider the following illustrative entries.
NGGLIHVVTREKGPQVC [RPO21]	3.09
FTKPPANETDKRPTPPS [YOR098C/NUP1]	3.05

protein stability index reading for GIKLALDPNLITLALSS [SRB4] : 2.91

---

Assay Protocol: protein stability index of a GFP-peptide fusion (yeast GPS) (PSI 1-4); higher = more stable; sorted into four equal gates, so the index is relative within each strain
Conditions: doa10∆
Measured Endpoint: protein stability index
Form rule: numeric answer, no unit written next to it.

DLDETTQTFNGSIFTHE [YML031W/NDC1]	2.96

Per the record, KKVMPAIVVRQAKSWRR [RPL23A] has protein stability index of 2.84

Value of measured protein stability index for the entry PQDDDSQSKMMSSQISS [MTR3] : 3.14

---

Assay Protocol: protein stability index of a GFP-peptide fusion (yeast GPS) (PSI 1-4); higher = more stable; sorted into four equal gates, so the index is relative within each strain
Conditions: ubr1∆
protein stability index values by entry

Answered cases to consult:
KKVTAFVPNDGCLNFVD [RPS23A]	2.85
ACLGNDGILRLYDALEP [YGL100W/SEH1]	1.96
AVDAKQLAQIRQFLKAN [YML103C/NUP188]	2.78

The reported value for SDLNLTDRQKKLLGVDM [YLR018C/POM34] in terms of protein stability index is 3.23

Recorded result, NNANVLGGEINDNEDDD [BRR2] , protein stability index: 2.98

Form: sequence = YLACKVEECPQYIRTLV [SSN8] ; protein stability index = 1.96

The reported protein stability index of the sequence QDVIKVLYQSNATHDED [SWP82] was 2.88

protein stability index measured on FIPHGLKRRQVIEQCYL [SRB8] = 2.44

Consider VCQVTKFGLLLQVSAQE [ECM29] . Its measured protein stability index is 1.9

Record summary for KRKSAQEPELSLDQGDA [SMC4] : reported protein stability index = 3.39

Form: sequence = DVLKSQANTEPENITKR [MCD1] ; protein stability index = 3.09

Memo: SFTNYITRSFKEPRLVI [RPS0A] , reported protein stability index: 2.83

Lookup result for NGTVNNNSALSNVNSDI [RPT3] ; measured protein stability index: 2.15

Reported protein stability index of EIFQLFTNPSVDIQIIN [SWI1] : 2.54

The sequence MASTAVMMDVDSSGVND [RPN3] showed protein stability index equal to 3.26

The recorded protein stability index for entry SLSIEENIPVALCKNRK [POP1] equals 2.95

The recorded protein stability index for entry KFFHNGMIYNKLFVSKE [FAS2] equals 2.58

protein stability index reading for PLPAVFSAPIRPDIVHT [RPL4A] : 2.13

response.value for NFNKFFKIWHGEINKIC [PCI8] (field: protein stability index) = 1.14
